target: human factor XIa (Homo sapiens, UniProt P03951)
Sequence (P03951 388-625 limits assumed): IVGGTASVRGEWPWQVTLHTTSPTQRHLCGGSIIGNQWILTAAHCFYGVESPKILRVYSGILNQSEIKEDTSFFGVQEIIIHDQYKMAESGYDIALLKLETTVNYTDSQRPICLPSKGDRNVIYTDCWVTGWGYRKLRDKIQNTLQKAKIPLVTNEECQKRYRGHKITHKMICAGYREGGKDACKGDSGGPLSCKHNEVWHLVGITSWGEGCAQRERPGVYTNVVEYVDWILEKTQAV
Sequence (P03951 19-387 partner limits assumed): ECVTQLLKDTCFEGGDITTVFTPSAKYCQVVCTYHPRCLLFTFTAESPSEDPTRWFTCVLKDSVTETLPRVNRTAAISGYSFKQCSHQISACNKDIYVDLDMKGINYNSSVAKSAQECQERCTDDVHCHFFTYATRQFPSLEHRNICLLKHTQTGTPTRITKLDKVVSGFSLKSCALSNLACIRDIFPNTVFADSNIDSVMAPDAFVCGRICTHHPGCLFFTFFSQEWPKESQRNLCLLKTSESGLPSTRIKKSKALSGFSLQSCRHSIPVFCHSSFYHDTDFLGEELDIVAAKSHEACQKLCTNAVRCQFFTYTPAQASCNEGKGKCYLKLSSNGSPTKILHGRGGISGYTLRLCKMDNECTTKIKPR
pIC50: −log10 of the molar value.
Tag: Satisfied if measured pIC50 is not below 6, Not satisfied if it is.

// known answers, use as guide
- CCC(F)(c1ccc(F)cc1)c1n[nH]c(C(=O)N2CCC[C@@]3(C2)OC(=O)Nc2ccc(Cl)c(F)c23)n1 (single isomer, unassigned): Not satisfied
- CCC(c1ccc(F)cc1)c1nnc(C(=O)N2CC(C)(C)C[C@@]3(C2)OC(=O)Nc2ccc(Cl)c(F)c23)[nH]1 (single isomer, unassigned): Not satisfied
- O=C1Nc2ccc(Cl)c(F)c2[C@@]2(CCCN(C(=O)c3nnc(C(c4ccccc4)C4CC4)[nH]3)C2)O1 (single isomer, unassigned) [Example 107]: Not satisfied
- O=C1Nc2ccc(Cl)c(F)c2[C@@]2(CCCN(C(=O)c3cnc([C@@H](O)c4ccc(F)cc4)[nH]3)C2)O1: Not satisfied
- CC[C@H](c1ccc(F)cc1)c1ncc(C(=O)N2CCC[C@@]3(C2)OC(=O)Nc2ccc(Cl)c(F)c23)[nH]1 (single isomer, unassigned): Satisfied

Now, please, on to the next compound.
Does pIC50 meet or surpass 6 for O=C1Nc2ccc(Cl)c(F)c2[C@@]2(CCCN(C(=O)c3nnc(C4(c5ccc(F)cc5)CCC4)[nH]3)C2)O1 ?
Not satisfied

====

Target: Human plasma kallikrein (Homo sapiens)
Construct: yields a heavy chain (371 amino acids) and a light chain (248 amino acids)
Test: Plasma Kallikrein Assay
Settings: purified Human plasma kallikrein 0.5 nM, substrate Acetyl-K-P-R-AFC; read-out: PKal IC50
Protocol: The effectiveness of a compound of the present invention as an inhibitor of plasma kallikrein can be determined using a relevant purified serine protease, and an appropriate synthetic substrate. The rate of hydrolysis of the chromogenic or fluorogenic substrate by the relevant serine protease was measured both in the absence and presence of compounds of the present invention. […] A decrease in the rate of fluorescence change in the presence of inhibitor is indicative of enzyme inhibition. […]
property name: IC50 (µM)
Form entry: value (µM) — number only.

- O=C1Nc2ccc(Cl)c(F)c2[C@@]2(CCCN(C(=O)c3nc(Cc4ccccc4)c[nH]3)C2)O1: 0.0193
- CC[C@@H](c1ccc(F)cc1)c1ncc(C(=O)N2CCC[C@@]3(C2)OC(=O)Nc2ccc(Cl)c(F)c23)[nH]1 (single isomer, unassigned): 0.0017
- CC1(C)CN(C(=O)c2cnn(Cc3ccccc3)c2)C[C@]2(C1)OC(=O)Nc1ccc(Cl)c(F)c12: 0.0121
- CC1(C)CN(C(=O)c2nnc(Cc3ccccc3)[nH]2)C[C@]2(C1)OC(=O)Nc1ccc(Cl)c(F)c12: 0.0149
- O=C1Nc2ccc(Cl)c(F)c2[C@@]2(CCCN(C(=O)c3cnn(Cc4ccc(F)c(Cl)c4)c3)C2)O1: 0.008

Form field - read-out: IC50; system: Human plasma kallikrein (Homo sapiens); submitted item: CCC(c1ccnc(C(F)(F)F)c1)c1c[nH]c(C(=O)N2CCC[C@@]3(C2)OC(=O)Nc2ccc(Cl)c(F)c23)n1 (single isomer, unassigned) [Example 73]
0.0082

====

molecular target: human factor XIa (Homo sapiens)
property name: IC50
Record the result as a number with its unit.

- Cc1cc(Cc2nnc(C(=O)N3CCC[C@@]4(C3)OC(=O)Nc3ccc(Cl)c(F)c34)[nH]2)cc2[nH]ncc12: 7760 nM
- CCC(c1ccc(F)cc1)c1c[nH]c(C(=O)N2CCC[C@@]3(C2)OC(=O)Nc2ccc(Cl)c(F)c23)n1 (stereo partly drawn) [Example 70]: 946 nM

Form field - read-out: IC50; system: human factor XIa (Homo sapiens); submitted item: O=C1Nc2ccc(Cl)c(F)c2[C@@]2(CCCN(C(=O)c3cnn(C(CC4CC4)c4ccccc4)c3)C2)O1 (single isomer, unassigned)
1570 nM

====

molecular target: Human plasma kallikrein (Homo sapiens); construct: yields a heavy chain (371 amino acids) and a light chain (248 amino acids); assay: Plasma Kallikrein Assay; settings: purified Human plasma kallikrein 0.5 nM, substrate Acetyl-K-P-R-AFC; read-out: PKal IC50
property name: pIC50
Please express pIC50 as -log10 of the molar concentration.

• CCC(c1ccc(F)cc1)c1nnc(C(=O)N2CC(C)(C)C[C@@]3(C2)OC(=O)Nc2ccc(Cl)c(F)c23)[nH]1 (single isomer, unassigned) [Example 102] = 8.44
• CCCCC(O)(c1ccc(F)cc1)c1ncc(C(=O)N2CCC[C@@]3(C2)OC(=O)Nc2ccc(Cl)c(F)c23)[nH]1 (stereo partly drawn) = 8.06

Fill in the blank: the reported pIC50 of O=C1Nc2ccc(Cl)c(F)c2[C@@]2(CCCN(C(=O)c3nnc(C4(c5ccc(F)cc5)CCC4)[nH]3)C2)O1 is ____.
7.86

====

biological target: Human plasma kallikrein (Homo sapiens, UniProt P03952); construct: yields a heavy chain (371 amino acids) and a light chain (248 amino acids); assay: Plasma Kallikrein Assay; settings: purified Human plasma kallikrein 0.5 nM, substrate Acetyl-K-P-R-AFC; read-out: PKal IC50
Sequence (P03952 391-638 limits assumed): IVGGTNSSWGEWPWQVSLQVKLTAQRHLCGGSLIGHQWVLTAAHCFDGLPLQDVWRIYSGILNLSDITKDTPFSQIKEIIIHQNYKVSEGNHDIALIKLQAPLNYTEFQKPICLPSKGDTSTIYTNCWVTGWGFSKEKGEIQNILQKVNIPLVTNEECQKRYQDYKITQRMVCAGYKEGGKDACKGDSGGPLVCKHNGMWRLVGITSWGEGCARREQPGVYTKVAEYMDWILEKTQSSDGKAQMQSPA
Sequence (P03952 20-390 partner limits assumed): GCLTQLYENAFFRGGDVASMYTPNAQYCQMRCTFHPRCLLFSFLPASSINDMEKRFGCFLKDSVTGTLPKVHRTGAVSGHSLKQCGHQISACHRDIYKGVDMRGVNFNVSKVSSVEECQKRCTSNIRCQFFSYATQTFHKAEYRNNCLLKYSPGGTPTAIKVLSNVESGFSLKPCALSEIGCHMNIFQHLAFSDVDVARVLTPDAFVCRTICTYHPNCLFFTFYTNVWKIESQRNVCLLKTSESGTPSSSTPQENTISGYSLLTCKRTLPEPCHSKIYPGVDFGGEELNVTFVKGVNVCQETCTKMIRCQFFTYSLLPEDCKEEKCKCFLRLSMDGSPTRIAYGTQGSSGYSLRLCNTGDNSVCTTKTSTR
property name: pIC50
Please express pIC50 as -log10 of the molar concentration.

• O=C1Nc2ccc(Cl)c(F)c2[C@@]2(CCCN(C(=O)c3nnc(C(CC(F)(F)F)c4ccccc4)[nH]3)C2)O1 (single isomer, unassigned) [Example 99] = 8.01
• CCC(c1cccc(S(C)(=O)=O)c1)n1cc(C(=O)N2CCC[C@@]3(C2)OC(=O)Nc2ccc(Cl)c(F)c23)cn1 (single isomer, unassigned) [Example 31] = 8.05

Form field - read-out: pIC50; system: Human plasma kallikrein (Homo sapiens, UniProt P03952); submitted item: O=C1Nc2ccc(Cl)c(F)c2[C@@]2(CCCN(C(=O)c3cnn(Cc4noc5ccccc45)c3)C2)O1
7.42

Form field - read-out: pIC50; system: Human plasma kallikrein (Homo sapiens, UniProt P03952); submitted item: CC1CN(C(=O)c2cnn(Cc3ccccc3)c2)C[C@]2(C1)OC(=O)Nc1ccc(Cl)c(F)c12 (stereo partly shown)
7.55

Form field - read-out: pIC50; system: Human plasma kallikrein (Homo sapiens, UniProt P03952); submitted item: O=C1Nc2ccc(Cl)c(F)c2[C@@]2(CCCN(C(=O)c3nnc(Cc4cccc(CO)c4)[nH]3)C2)O1
7.40

Form field - read-out: pIC50; system: Human plasma kallikrein (Homo sapiens, UniProt P03952); submitted item: O=C1Nc2ccc(Cl)c(F)c2[C@@]2(CCCN(C(=O)c3cnn(Cc4ccc(-c5c[nH]c(=O)o5)cc4)c3)C2)O1
7.73

Form field - read-out: pIC50; system: Human plasma kallikrein (Homo sapiens, UniProt P03952); submitted item: O=C1Nc2ccc(Cl)c(F)c2[C@@]2(CCCN(C(=O)c3cnn(C(CC4CC4)c4ccccc4)c3)C2)O1 (single isomer, unassigned)
8.16

====

target: Human plasma kallikrein (Homo sapiens); construct: yields a heavy chain (371 amino acids) and a light chain (248 amino acids); purchased Enzyme Research Laboratories; assay: Plasma Kallikrein Assay; format: biochemical; settings: purified Human plasma kallikrein 0.5 nM, substrate Acetyl-K-P-R-AFC; read-out: PKal IC50
Reported values of IC50 for individual entries
Form entry: value (nM) — number only.

* CN1CCOc2cc(Cn3cc(C(=O)N4CCC[C@@]5(C4)OC(=O)Nc4ccc(Cl)c(F)c45)cn3)ccc21 | 35.1
* CCC(c1c(C)noc1C)n1cc(C(=O)N2CCC[C@@]3(C2)OC(=O)Nc2ccc(Cl)c(F)c23)cn1 (single isomer, unassigned) [Example 44] | 5.9
* CC1(C)COc2cc(Cn3cc(C(=O)N4CCC[C@@]5(C4)OC(=O)Nc4ccc(Cl)c(F)c45)cn3)ccc21 | 22.9
* O=C1Nc2ccc(Cl)c(F)c2[C@@]2(CCCN(C(=O)c3cnn(Cc4cncc(Cl)c4)c3)C2)O1 | 26.4

Fill in the blank: the reported IC50 of C[C@@H](O)[C@H](c1ccccc1)n1cc(C(=O)N2CCC[C@@]3(C2)OC(=O)Nc2ccc(Cl)c(F)c23)cn1 is ____.
40.3

====

biological target: human factor XIa (Homo sapiens, UniProt P03951)
Reported values of pIC50 for individual entries
Please express pIC50 as -log10 of the molar concentration.

The following compounds have reported results that may help.
• CCC(c1ccc2cnccc2c1)n1cc(C(=O)N2CCC[C@@]3(C2)OC(=O)Nc2ccc(Cl)c(F)c23)cn1 (single isomer, unassigned) = 5.99
• CCC(c1ccc2[nH]ncc2c1)n1cc(C(=O)N2CCC[C@@]3(C2)OC(=O)Nc2ccc(Cl)c(F)c23)cn1 (single isomer, unassigned) = 6.00
• O=C1Nc2ccc(Cl)c(F)c2[C@@]2(CCCN(C(=O)c3nnc(C(CC(F)(F)F)c4cccc(Cl)c4)[nH]3)C2)O1 (single isomer, unassigned) = 5.84
• CCC(c1ccc(F)cc1)c1c[nH]c(C(=O)N2CCC[C@@]3(C2)OC(=O)Nc2ccc(Cl)c(F)c23)n1 (single isomer, unassigned) [Example 72] = 5.84

Fill in the blank: the reported pIC50 of O=C1Nc2ccc(Cl)c(F)c2[C@@]2(CC(C3CC3)CN(C(=O)c3cnn(Cc4ccccc4)c3)C2)O1 (stereo partly drawn) is ____.
5.86

Fill in the blank: the reported pIC50 of O=C1Nc2ccc(Cl)c(F)c2[C@@]2(CCCN(C(=O)c3nnc(C(c4ccccc4)C4CC4)[nH]3)C2)O1 (single isomer, unassigned) [Example 106] is ____.
6.10

Hey, just so you know, these numbers are from patent US20250099478A1.
